Data provenance: PubChem BioAssay (NCI)

Test system: HL-60(TB) leukemia
Procedure summary: NCI tumour cell line growth inhibition, 48 h
Tag: Fulfilled if measured TGI is not below 4 µM, Not fulfilled if it is.

Compound: N#C/C(=C/C=C/c1ccccc1)S(=O)c1ccccc1 (centres undefined)
Measured target: HL-60(TB) leukemia
Assigned class: Not fulfilled
//
Compound: C/C=C1\C(=O)O[C@@H]2C1C[C@@H]1O[C@H]2[C@H](C)CCC/C(C)=C/CC[C@@]1(C)O (some centres undefined)
Measured target: HL-60(TB) leukemia
Assigned class: Fulfilled
//
Compound: COc1ccc(Nc2nc(N)c(C(=O)c3ccccc3)s2)cc1
Measured target: HL-60(TB) leukemia
Assigned class: Not fulfilled
//
Compound: CCOC(=O)C(C)(C)/C=C\C(Cl)=C(Cl)Cl
Measured target: HL-60(TB) leukemia
Assigned class: Fulfilled
//
Compound: CN(C)CCNC(=O)c1ccc(NCCCN(C)CCCNc2ccc(C(=O)NCCN(C)C)c3[nH]c4ccc([N+](=O)[O-])cc4c(=O)c23)c2c(=O)c3cc([N+](=O)[O-])ccc3[nH]c12
Measured target: HL-60(TB) leukemia
Assigned class: Not fulfilled
//
Compound: COc1ccccc1N1CCN(C(=O)c2ccc(NS(=O)(=O)c3cccc4cccnc34)cc2)CC1
Measured target: HL-60(TB) leukemia
Assigned class: Fulfilled
//
Compound: CC1OC(O[C@H]2/C=C/C=C/C=C/C=C/C=C/C=C/C=C/[C@H](C)[C@@H](O)[C@@H](C)[C@H](C)OC(=O)C[C@H](O)C[C@H](O)CC[C@@H](O)[C@H](O)C[C@H](O)C[C@]3(O)C[C@H](O)[C@@H](C(=O)O)[C@H](C2)O3)C(O)C(N)C1O (some centres undefined)
Measured target: HL-60(TB) leukemia
Assigned class: Fulfilled
//
Compound: CC12CC3(O)OC(O1)C1(COC(=O)c4ccccc4)C3CC21OC1OC(CO)C(O)C(O)C1O (centres undefined)
Measured target: HL-60(TB) leukemia
Assigned class: Fulfilled

====

As shown below, each of these compounds has a reported TGI value.
System: IGROV1 ovarian
Procedure summary: NCI tumour cell line growth inhibition, 48 h

Compound: CC(C)c1cccc(C(C)C)c1N=C(N)C#N
TGI: > 100 µM

Compound: CC1=C2C(=O)C(C)(C)C=C2C(=O)[C@](C)(O)C12CC2
TGI: > 1 µM

Compound: O=C(N/N=C\c1ccc([N+](=O)[O-])cc1)Nc1cccc2ccccc12
TGI: > 100 µM

Compound: CC1=C(C(=O)NCC(C)O)CC(C(=O)NCC(C)O)=C(C)N1 (stereo not given)
TGI: > 100 µM

Compound: Cc1ccc2cccc3c2c1CC1(C3=O)S(=O)(=O)OCCOS1(=O)=O
TGI: > 100 µM

Compound: Cc1ccc(/C=N/NC2=NCCN2)s1
TGI: > 100 µM

Compound: COc1ccc(C(C#N)NCCCCCCNC(C#N)c2ccc(OC)cc2)cc1 (stereo not given)
TGI: > 100 µM

Compound: N#CC(N=Nc1ccccc1)c1nc2ccccc2o1 (stereo not given)
TGI: 42.9 µM

Compound: O=c1[nH]c2ccc(CC(=S)N3CCN(c4ccccc4)CC3)cc2o1
TGI: > 100 µM

Compound: COc1cc2ccnc3c2c(c1OC)CC1CC(O)C(OC)CC31 (stereo not given)
TGI: > 100 µM

Compound: Cc1ccc(O)c(-c2csc(NCN3CCN(CNc4nc(-c5cc(C)ccc5O)cs4)CC3)n2)c1
TGI: > 100 µM

Compound: O=C1OC[C@@H]2Cc3c([nH]c4ccccc34)[C@@H](c3cc(O)c(O)c(O)c3)N12
TGI: 49.7 µM

Compound: Cc1cc(O)c(/C=N/c2nc(-c3cccc([N+](=O)[O-])c3)cs2)c(=O)o1
TGI: > 100 µM

Compound: COC1OC(CBr)C(OC(c2ccccc2)(c2ccccc2)c2ccccc2)C(OC(c2ccccc2)(c2ccccc2)c2ccccc2)C1OC(c1ccccc1)(c1ccccc1)c1ccccc1 (stereo not given)
TGI: > 100 µM

Compound: CC1OC(O[C@H]2/C=C/C=C/C=C/C=C/C=C/C=C/C=C/[C@H](C)[C@@H](O)[C@@H](C)[C@H](C)OC(=O)C[C@H](O)C[C@H](O)CC[C@@H](O)[C@H](O)C[C@H](O)C[C@]3(O)C[C@H](O)[C@@H](C(=O)O)[C@H](C2)O3)C(O)C(N)C1O (stereo not given in full)
TGI: 20.7 µM

Compound: CN(C)CCCN=c1cc2c(=O)n(CCCN(C)C)c(=O)c3c(NCCCN(C)C)cc4c(O)n(CCCN(C)C)c(=O)c1c4c3-2
TGI: 8.29 µM

Compound: O=C1/C(=C/c2ccccc2Br)COc2ccc(O)c(O)c21
TGI: 4.29 µM

Compound: CCCCCCCC(=O)OCC1OC(n2cc(F)c(=O)[nH]c2=O)C(NC(=O)OCc2ccccc2)C(OC(=O)CCCCCCC)C1O (stereo not given)
TGI: > 100 µM

Compound: O[C@H]1[C@H](O)[C@H](O)CN2CCC[C@@H](O)[C@H]12
TGI: > 100 µM

Compound: CC(C)(C)OC(=O)Nc1cc(-c2ccccc2)co1
TGI: > 100 µM

Compound: COc1cc2c(=O)n(CCCn3ccnc3)c3c4cc5c(cc4ccc3c2cc1OC)OCO5
TGI: > 86.6 µM

Compound: O=C(N/N=C\c1ccc([N+](=O)[O-])cc1)c1ccccc1Nc1ccccc1C(=O)N/N=C/c1ccc([N+](=O)[O-])cc1
TGI: > 100 µM

Compound: O=C(/C=C/c1cccs1)c1cccc(C(=O)/C=C/c2cccs2)n1
TGI: > 100 µM

Compound: c1ccc(/N=C2\c3ccccc3CN2c2ccccn2)nc1
TGI: > 100 µM

Compound: O=c1[nH]c(Nc2cccc(Br)c2)nc2nc[nH]c12
TGI: > 100 µM
